assay: yeast display, Sf9 membrane polyspecificity reagent, FACS + sequencing; frameworks hold sequencing errors

{"sequence record": "QVQLVESGGGLVQAGGSLRLSCAASGRTFGYYAMGWYRQAPGKERELVATITSRGGDTSYADSVKGRFTISRDNAKNTVYLQMKSLKPEDTAVYYCAADRFQGRDDYWGQGTQVTVSS", "polyreactivity (PSR sort gate)": "high polyreactivity"}
{"sequence record": "QVQLVESGGGLVQAGGSLSLSCAASGSSFSLYTMGWYRQAPGKERDLVASISQSGGSTYYADSVKGRFTISRDNAKNTVYLQMNSLKPEDTAVYFWNAKGRSGTLTLYYYWGQGTQVTVSS", "polyreactivity (PSR sort gate)": "low polyreactivity"}
{"sequence record": "QVQLVESGGGLGQAGGSLRLSCAASGYTFRNYVMGWYRPAPGKERQLVATISRGGRTNYADSVKGRFTISRDNAKNTVYLQMNSLKPEDTAVYYCNADWSRVPYRYDYWGQGTQVTVSS", "polyreactivity (PSR sort gate)": "high polyreactivity"}
{"sequence record": "QVQLVESGGGLVQAGGSLRLSCDASGSTFAYNVMGWYRQAPGKERELVAAISRSGGSTYYADSVKGRFTISRDNAKNTVYLQMNSLKPEDTAVYYCAKLFRPRLQDGYWGQGSQVTVSS", "polyreactivity (PSR sort gate)": "high polyreactivity"}
{"sequence record": "QVQLVESGGGLVQAGGSLRLSCAASGSIFYQNVMGGYRQAPGKERELVAAISSSGDSTYYADSVKGRFTISRDNAKNTVYLQMNSLKPEDTAVYYCAAEPEYVSGPYDYWGQGTQVTVSS", "polyreactivity (PSR sort gate)": "low polyreactivity"}
{"sequence record": "QVQLQESGGGLVQAGGSPRLSCAASDNIFPDSVMCWSRQAPGKERELVATIGFGATTNYADSVKGRFTISRDNAKNTVYLQMNSLKPEDTAVYYCAADPLNYEYFCYWGQGTQVTVSS", "polyreactivity (PSR sort gate)": "low polyreactivity"}
{"sequence record": "QVQLVESGGGLVQAGGSLRLSSAASGSIFFEYAMRWSRQAPGNEREWVASINRGGGSTYYADSVKGRFTISRDNAKNTVYLQMNSLKPEDTAVYYCAAQWKYRQSYLDYYWGQGTQVTVSS", "polyreactivity (PSR sort gate)": "low polyreactivity"}
{"sequence record": "QVQLVESGGGLVQAGGSLRLSCAASGFIVRYNAMGWYRQAPGKERELVAVITDSSDSTYYADSVKGRFTISRDNAKNTVYLQMNSLKPVDTAVYYCDTDYGYAGDYWGQGSQVTVSS", "polyreactivity (PSR sort gate)": "low polyreactivity"}
{"sequence record": "QVQLVESGGGLVQAGGSLRLSCAASGRTFRRYAMGWYRQAPGKEREWVAAISRTGSTNNYADSVKGRFTISRDNAKKTVYLQLNSLKPEDTAVYDCNGQLILGYGYDYWGQGTQVTVSS", "polyreactivity (PSR sort gate)": "high polyreactivity"}
{"sequence record": "QVQLVESGGGLVQAGGSLRLSCAASGIIFRLYAMGWYRQAPGKERELVAAISYRGGSTYYADSVKGRFTISRDNAKNTVYLQMNSLKPEDTAVYYCAARNPRYSFYYWGQGTQVTVSS", "polyreactivity (PSR sort gate)": "high polyreactivity"}
{"sequence record": "QVQLVESGGGLVQAGGSLRLICAASGFSFRYYDMGWYRQAPGKERELVAAISRSGGRTYYADSVKGRFTISRDNAKNSVYLQMNSLNPEDTAVYYCNAVYNVVLSRVIYARGYWGQGTQVTVSS", "polyreactivity (PSR sort gate)": "high polyreactivity"}
